These entries and their values trace back to patent US20070073056A1.

Would you kindly list IC50 for each of these compounds?
target: UniProt:P20272; assay: binding of the pyrazoline compounds to CB1-receptors (Pharmacological Methods, Part I); parameters: IC50; species or system human or rat; settings: radioligand [3H]-CP55940, read-out: IC50
Numbers only, in nM.

C[C@@H]1C(C(=O)NN2CCCCC2)=NN(c2ccc(Cl)cc2Cl)[C@@H]1c1ccccc1 (relative stereo) [Example 375]    140

Please find the next compound below.
Hello, please tell me recorded IC50 for this one: C[C@H]1C(C(=O)NN2CC3CCCC3C2)=NN(c2ccc(Cl)cc2Cl)[C@H]1c1ccc(Cl)cc1 (relative stereo) [Example 13]
25.1
